Assay: Metabolic stability in rat liver microsomes assessed as compound remaining after 30 mins
Assay type: ADME, Microsome
Settings: read-out: Stability
Catalogue of compounds with associated remaining at 0.5 h
experimental.readout: remaining at 0.5 h (%)

>>> df
                                  cpd_smiles  test_value
 0  CN[C@@H](CC(C)C)C(=O)N[C@@H]1CC[C@H]2CN(Cc3cccc(C(F)(F)F)c3)C[C@H]21        60.7
 1  CN[C@@H](CC(C)C)C(=O)N[C@H]1CC[C@@H]2CN(c3ccc(OC(F)(F)F)cc3)C[C@@H]21          66
 2  CN[C@@H](CC(C)C)C(=O)N[C@H]1CC[C@@H]2CN(S(=O)(=O)c3ccc(C(F)(F)F)cc3)C[C@@H]21        69.9
 3  CN[C@@H](CC(C)C)C(=O)N[C@@H]1CC[C@H]2CN(S(=O)(=O)c3cccc(C(F)(F)F)c3)C[C@H]21        26.5
 4  CN[C@@H](CC(C)C)C(=O)N[C@@H]1CC[C@H]2CN(S(=O)(=O)c3ccc(C(F)(F)F)cc3)C[C@H]21        47.3
 5  O=C(N[C@H]1CC[C@H]2CN(Cc3cccc(C(F)(F)F)c3)C[C@H]21)C(C1CCCCC1)C1CCCCC1         0.1
 6  O=C(N[C@@H]1CC[C@H]2CN(Cc3cccc(C(F)(F)F)c3)C[C@H]21)C(C1CCCCC1)C1CCCCC1         2.6
 7  CN[C@@H](Cc1ccccc1)C(=O)N[C@H]1CC[C@@H]2CN(S(=O)(=O)c3ccc(C(F)(F)F)cc3)C[C@@H]21        26.2
 8  CC(C)(C)C[C@H](N)C(=O)N[C@H]1CC[C@@H]2CN(S(=O)(=O)c3ccc(C(F)(F)F)cc3)C[C@@H]21        79.4
 9  CCC[C@H](NC)C(=O)N[C@H]1CC[C@@H]2CN(S(=O)(=O)c3ccc(C(F)(F)F)cc3)C[C@@H]21        83.4
10  CC(C)N[C@@H](CC(C)(C)C)C(=O)N[C@H]1CC[C@@H]2CN(S(=O)(=O)c3ccc(C(F)(F)F)cc3)C[C@@H]21        64.3
11  CC(C)C[C@@H](C(=O)N[C@@H]1CC[C@H]2CN(S(=O)(=O)c3cccc(C(F)(F)F)c3)C[C@H]21)N(C)C           1
